The reported measurements were obtained from ChEMBL document CHEMBL1142823.

Measurement Target: Transient receptor potential cation channel subfamily V member 1 (Rattus norvegicus, UniProt O35433)
Sequence (O35433 whole entry): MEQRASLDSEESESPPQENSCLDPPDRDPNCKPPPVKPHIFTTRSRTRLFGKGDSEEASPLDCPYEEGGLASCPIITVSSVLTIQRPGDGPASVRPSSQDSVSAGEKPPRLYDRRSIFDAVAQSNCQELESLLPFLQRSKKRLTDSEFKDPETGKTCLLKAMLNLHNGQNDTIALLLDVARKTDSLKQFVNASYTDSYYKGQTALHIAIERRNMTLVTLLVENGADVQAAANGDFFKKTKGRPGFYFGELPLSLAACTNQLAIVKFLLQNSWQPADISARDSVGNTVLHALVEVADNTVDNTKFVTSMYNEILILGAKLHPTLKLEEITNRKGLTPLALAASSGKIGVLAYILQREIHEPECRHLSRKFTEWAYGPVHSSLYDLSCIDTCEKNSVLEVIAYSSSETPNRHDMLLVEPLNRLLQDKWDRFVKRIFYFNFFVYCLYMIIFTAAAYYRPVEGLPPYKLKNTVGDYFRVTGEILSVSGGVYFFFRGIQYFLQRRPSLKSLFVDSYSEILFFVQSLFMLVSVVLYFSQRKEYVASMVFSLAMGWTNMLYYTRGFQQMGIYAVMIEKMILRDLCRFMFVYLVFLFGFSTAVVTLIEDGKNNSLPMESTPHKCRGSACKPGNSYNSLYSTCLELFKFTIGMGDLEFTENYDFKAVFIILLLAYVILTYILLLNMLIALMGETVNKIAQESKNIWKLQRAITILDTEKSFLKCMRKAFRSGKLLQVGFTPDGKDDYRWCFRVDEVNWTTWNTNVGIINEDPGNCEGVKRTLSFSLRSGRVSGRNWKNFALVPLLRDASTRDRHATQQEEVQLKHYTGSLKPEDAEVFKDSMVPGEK
Method Summary: Antagonist activity towards rat TRPV1 expressed in CHO cells
Assay type: functional, cell-based
Measurement Type: pKi
Would you please state pKi, meaning minus log10 of the concentration in mol/L, as a bare number?

[in] Which pKi value is on record for CC(C)(C)c1ccc(CO/C(S)=N/Cc2ccc(NS(C)(=O)=O)cc2)cc1 ?
[out] 5.20

[in] Record: CC(C)(C)c1ccc(CNC(=O)NCc2ccc(NS(C)(=O)=O)cc2)cc1
[out] 6.65

[in] Record: Cc1ccc(CCCNC(=O)Cc2ccc(NS(C)(=O)=O)cc2)cc1C
[out] 4.87

[in] Record: CC(C)(C)c1ccc(C/N=C(\S)NNc2ccc(NS(C)(=O)=O)cc2)cc1
[out] 5.84

[in] Record: COc1cc(C/N=C(\S)OCc2ccc(C(C)(C)C)cc2)ccc1NS(C)(=O)=O
[out] 5.08

[in] Record: CC(C)(C)c1ccc(CN(O)/C(S)=N/Cc2ccc(NS(C)(=O)=O)c(Cl)c2)cc1
[out] 6.24

[in] Record: CC(C)(C)c1ccc(CN(O)/C(S)=N/Cc2ccc(NS(C)(=O)=O)c([N+](=O)[O-])c2)cc1
[out] 6.20

[in] Record: CC(C)(C)c1ccc(CC(=O)NCc2ccc(NS(C)(=O)=O)cc2)cc1
[out] 5.17

[in] Record: CC(C)(C)c1ccc(CN(O)/C(S)=N/Cc2ccc(NS(C)(=O)=O)cc2)cc1
[out] 6.33

[in] Record: CC(C)(C)c1ccc(N/N=C(\S)NCc2ccc(NS(C)(=O)=O)cc2)cc1
[out] 5.70
